Catalogue of molecules with associated pIC50
SYSTEM UNDER TEST: Avi-KRAS G12D (1-169) GppNHp/RAF1 RBD-3xFLAG (52-151) (Homo sapiens, UniProt P01116, G12D)
Construct: Avi-KRAS G12D (1-169)
Sequence (P01116 1-169 isoform P01116-2 G12D): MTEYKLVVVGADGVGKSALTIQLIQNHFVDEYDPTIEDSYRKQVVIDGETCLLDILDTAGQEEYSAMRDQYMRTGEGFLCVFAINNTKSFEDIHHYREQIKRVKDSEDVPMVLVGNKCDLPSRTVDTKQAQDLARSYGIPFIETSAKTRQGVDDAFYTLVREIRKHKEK
ASSAY: Raf1-KRAS G12D-GppNHP disruption HTRF assay (Biological Example 1)
Assay type: binding
TEST CONTEXT: KRAS G12D, GppNHp-loaded; Table 11
pIC50: −log10 of the molar value.

q: Using the record for "CN(c1nc(OC[C@@]23CCCN2C[C@H](F)C3)nc2c(F)c(-c3ccc(F)c4sc(N)c(C#N)c34)c(C(F)(F)F)cc12)[C@H]1C[C@H](O)C1" , state its measured pIC50.
a: 6.00 to 7.00

q: Using the record for "CN(c1nc(OC[C@@]23CCCN2C[C@H](F)C3)nc2c(F)c(-c3ccc(F)c4sc(N)c(C#N)c34)c(C(F)(F)F)cc12)[C@@H]1C[C@H](O)[C@@H]1CO" , state its measured pIC50.
a: > 7.00

q: Using the record for "N#CC[C@H]1CN(c2nc(OC[C@@]34CCCN3C[C@H](F)C4)nc3c(F)c(-c4ccc(F)c5sc(N)c(C#N)c45)c(C(F)(F)F)cc23)CCO1" , state its measured pIC50.
a: 6.00 to 7.00
